# Tested on: Enterobacteriaceae
# method.description: Antimicrobial activity against carbapenemase producing Enterobacteriaceae assessed as resistant isolates by CLSI breakpoint assay
# Assay type: functional
Lab note: cut-off is 8%. Strictly less in Activity is met. Exactly 8% or more is not met.

{"columns": ["mol", "class.label"],
 "data": [
  ["CN(C)c1cc(NC(=O)CNC(C)(C)C)c(O)c2c1C[C@H]1C[C@H]3[C@H](N(C)C)C(O)=C(C(N)=O)C(=O)[C@@]3(O)C(O)=C1C2=O", "met"],
  ["C[C@@H](O)[C@H]1C(=O)N2C(C(=O)O)=C(S[C@@H]3CN[C@H](C(=O)Nc4cccc(C(=O)O)c4)C3)[C@H](C)[C@H]12", "not met"],
  ["NCC[C@H](O)C(=O)N[C@@H]1C[C@H](N)[C@@H](O[C@H]2O[C@H](CN)[C@@H](O)[C@H](O)[C@H]2O)[C@H](O)[C@H]1O[C@H]1O[C@H](CO)[C@@H](O)[C@H](N)[C@H]1O", "not met"],
  ["C[C@@H](O)[C@H]1C(=O)N2C(C(=O)O)=C(S[C@@H]3CN[C@H](C(=O)N(C)C)C3)[C@H](C)[C@H]12", "not met"],
  ["CN(C)[C@@H]1C(O)=C(C(N)=O)C(=O)[C@@]2(O)C(O)=C3C(=O)c4c(O)cccc4[C@@](C)(O)[C@H]3C[C@@H]12", "not met"]
]}

====

# Test system: Enterobacter sp.
# method.description: Antimicrobial activity against carbapenemase producing Enterobacter sp. by CLSI broth microdilution method
# Type: functional
Measured MIC90 accompanies every entry in the list below.
endpoint.label: MIC90

{"columns": ["molecule", "recorded.result"],
 "data": [
  ["C[C@@H](O)[C@H]1C(=O)N2C(C(=O)O)=C(S[C@@H]3CN[C@H](C(=O)N(C)C)C3)[C@H](C)[C@H]12", "> 8 µg/mL"],
  ["CN(C)c1cc(NC(=O)CNC(C)(C)C)c(O)c2c1C[C@H]1C[C@H]3[C@H](N(C)C)C(O)=C(C(N)=O)C(=O)[C@@]3(O)C(O)=C1C2=O", "0.5 µg/mL"],
  ["CN(C)[C@@H]1C(O)=C(C(N)=O)C(=O)[C@@]2(O)C(O)=C3C(=O)c4c(O)cccc4[C@@](C)(O)[C@H]3C[C@@H]12", "> 8 µg/mL"],
  ["NCC[C@H](O)C(=O)N[C@@H]1C[C@H](N)[C@@H](O[C@H]2O[C@H](CN)[C@@H](O)[C@H](O)[C@H]2O)[C@H](O)[C@H]1O[C@H]1O[C@H](CO)[C@@H](O)[C@H](N)[C@H]1O", "16 µg/mL"],
  ["C[C@@H](O)[C@H]1C(=O)N2C(C(=O)O)=C(S[C@@H]3CN[C@H](C(=O)Nc4cccc(C(=O)O)c4)C3)[C@H](C)[C@H]12", "> 16 µg/mL"],
  ["C[C@@H](O)[C@H]1C(=O)N2C(C(=O)O)=C(SCCNC=N)C[C@H]12 [IMIPENEM ANHYDROUS]", "> 8 µg/mL"]
]}

====

# Test system: Enterobacteriaceae
# method.description: Antimicrobial activity against carbapenemase producing Enterobacteriaceae by CLSI broth microdilution method
# Assay type: functional
endpoint.label: MIC90 (µg/mL)

{"columns": ["compound", "limit.qualifier", "recorded.result"],
 "data": [
  ["NCC[C@H](O)C(=O)N[C@@H]1C[C@H](N)[C@@H](O[C@H]2O[C@H](CN)[C@@H](O)[C@H](O)[C@H]2O)[C@H](O)[C@H]1O[C@H]1O[C@H](CO)[C@@H](O)[C@H](N)[C@H]1O", "=", 32],
  ["CN(C)c1cc(NC(=O)CNC(C)(C)C)c(O)c2c1C[C@H]1C[C@H]3[C@H](N(C)C)C(O)=C(C(N)=O)C(=O)[C@@]3(O)C(O)=C1C2=O", "=", 1],
  ["C[C@@H](O)[C@H]1C(=O)N2C(C(=O)O)=C(S[C@@H]3CN[C@H](C(=O)N(C)C)C3)[C@H](C)[C@H]12", ">", 8],
  ["C[C@@H](O)[C@H]1C(=O)N2C(C(=O)O)=C(S[C@@H]3CN[C@H](C(=O)Nc4cccc(C(=O)O)c4)C3)[C@H](C)[C@H]12", "=", 32],
  ["C[C@@H](O)[C@H]1C(=O)N2C(C(=O)O)=C(SCCNC=N)C[C@H]12 [IMIPENEM ANHYDROUS]", ">", 8],
  ["CN(C)[C@@H]1C(O)=C(C(N)=O)C(=O)[C@@]2(O)C(O)=C3C(=O)c4c(O)cccc4[C@@](C)(O)[C@H]3C[C@@H]12", ">", 8]
]}
